# experimental.target: 5-HT2A (Homo sapiens, UniProt P28223)
# Construct: expressed in transfected cells; the paragraph before it names a CHO-K1-mt aequorin Gα16 cell line
# Sequence (P28223 whole entry): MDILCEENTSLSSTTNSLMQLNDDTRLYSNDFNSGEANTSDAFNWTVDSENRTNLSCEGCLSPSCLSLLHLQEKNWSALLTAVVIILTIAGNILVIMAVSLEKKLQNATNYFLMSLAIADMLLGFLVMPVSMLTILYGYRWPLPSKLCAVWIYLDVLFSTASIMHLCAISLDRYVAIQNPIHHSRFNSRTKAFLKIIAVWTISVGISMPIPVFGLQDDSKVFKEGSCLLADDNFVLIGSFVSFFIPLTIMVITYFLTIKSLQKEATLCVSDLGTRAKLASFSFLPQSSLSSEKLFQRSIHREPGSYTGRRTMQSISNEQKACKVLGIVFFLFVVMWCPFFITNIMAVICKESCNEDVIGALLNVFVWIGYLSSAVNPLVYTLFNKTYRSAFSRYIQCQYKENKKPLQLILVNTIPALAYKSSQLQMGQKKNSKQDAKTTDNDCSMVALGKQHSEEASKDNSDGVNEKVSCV
# protocol.description: cell-based
# condition.description: 5-HT2A (EC50, % max activity), FLIPR calcium assay, agonist mode; class symbols
quantity.name: EC50

- mol: "CN1CCc2[nH]c3ncccc3c2CC1"
  quantity.name: "EC50"
  result: "> 6 µM"
- mol: "Clc1cnc2c(n1)CCNCC2"
  quantity.name: "EC50"
  result: "> 6 µM"
- mol: "c1ccc(COc2cnc3c(n2)CCNCC3)cc1"
  quantity.name: "EC50"
  result: "> 6 µM"
- mol: "FC1(F)CCN(c2cnc3c(n2)CCNCC3)CC1"
  quantity.name: "EC50"
  result: "0.2 to 1 µM"
- mol: "c1nc2c(nc1N1CCCOCC1)CCNCC2"
  quantity.name: "EC50"
  result: "1 to 6 µM"

###

# experimental.target: 5-HT2A (Homo sapiens)
# Construct: expressed in transfected cells; the paragraph before it names a CHO-K1-mt aequorin Gα16 cell line
# protocol.description: cell-based
# condition.description: FLIPR calcium assay, agonist mode; class symbols; read-out: 5-HT2A (EC50, % max activity)

- mol: "CN(C)c1cnc2c(n1)CCNCC2"
  EC50: "> 6 µM"
- mol: "FC1CN(c2cnc3c(n2)CCNCC3)C1"
  EC50: "> 6 µM"
- mol: "FC1CCN(c2cnc3c(n2)CCNCC3)CC1"
  EC50: "1 to 6 µM"
- mol: "c1nc2c(nc1N1CCCC1)CCNCC2"
  EC50: "> 6 µM"
- mol: "Nc1cnc2c(n1)CCNCC2"
  EC50: "> 6 µM"

###

# experimental.target: 5-HT2B (Homo sapiens)
# Construct: expressed in transfected cells; the paragraph before it names a CHO-K1-mt aequorin Gα16 cell line
# Sequence (P41595 whole entry): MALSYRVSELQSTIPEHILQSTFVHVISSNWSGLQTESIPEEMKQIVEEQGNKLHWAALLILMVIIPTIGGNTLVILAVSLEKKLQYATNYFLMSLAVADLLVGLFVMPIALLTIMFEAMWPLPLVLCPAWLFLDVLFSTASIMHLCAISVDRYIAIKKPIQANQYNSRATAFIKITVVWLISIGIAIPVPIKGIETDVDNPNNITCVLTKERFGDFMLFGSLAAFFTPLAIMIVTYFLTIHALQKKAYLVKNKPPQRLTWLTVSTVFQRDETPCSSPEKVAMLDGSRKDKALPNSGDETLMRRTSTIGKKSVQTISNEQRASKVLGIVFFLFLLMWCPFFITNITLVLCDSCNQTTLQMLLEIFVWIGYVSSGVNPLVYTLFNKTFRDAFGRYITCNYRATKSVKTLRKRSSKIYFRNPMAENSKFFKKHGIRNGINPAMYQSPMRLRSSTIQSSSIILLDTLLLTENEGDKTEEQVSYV
# protocol.description: cell-based
# condition.description: 5-HT2B (EC50, % max activity), FLIPR calcium assay, agonist mode; class symbols
pEC50: −log10 of the molar value.

- mol: "c1ccc(COc2cnc3c(n2)CCNCC3)cc1"
  pEC50: "> 6.70"
- mol: "c1nc2c(nc1N1CCCOCC1)CCNCC2"
  pEC50: "< 5.22"
- mol: "FC1(F)CCN(c2cnc3c(n2)CCNCC3)CC1"
  pEC50: "5.22 to 6.00"
- mol: "CN1CCc2[nH]c3ncccc3c2CC1"
  pEC50: "< 5.22"
- mol: "Clc1cnc2c(n1)CCNCC2"
  pEC50: "< 5.22"

###

# experimental.target: 5-HT2B (Homo sapiens)
# Construct: expressed in transfected cells; the paragraph before it names a CHO-K1-mt aequorin Gα16 cell line
# protocol.description: cell-based
# condition.description: FLIPR calcium assay, agonist mode; class symbols; read-out: 5-HT2B (EC50, % max activity)
pEC50: −log10 of the molar value.
Parameter: pEC50. Scope: all listed entries.
quantity.name: pEC50

- mol: "Nc1cnc2c(n1)CCNCC2"
  result: "< 5.22"
- mol: "CN(C)c1cnc2c(n1)CCNCC2"
  result: "6.00 to 6.70"
- mol: "FC1CCN(c2cnc3c(n2)CCNCC3)CC1"
  result: "6.00 to 6.70"
- mol: "FC1CN(c2cnc3c(n2)CCNCC3)C1"
  result: "< 5.22"
- mol: "c1nc2c(nc1N1CCCC1)CCNCC2"
  result: "6.00 to 6.70"
